method: Single-dose PK and food effect in beagle dogs (IV/PO)
Parameters: species or system beagle dog
assay-setup: both sexes, beagle, dog, in vivo, po, 25 mg/kg, Beagle dog, fed, PO 25 mg/kg; read-out: Tmax
value-type: Tmax (h)

input-smiles	reading-unit	reported-result
C[C@H](Nc1ncnc(N)c1C#N)c1cc2ncc(Cl)n2nc1-c1ccccc1	h	7

* * *

System: CYP1A2 mRNA
method: in vitro
assay-setup: male, human, EC50, CYP1A2 expression

compound	EC50 at 48 h / µM
C[C@H](Nc1ncnc(N)c1C#N)c1cc2ncc(Cl)n2nc1-c1ccccc1 [Amdizalisib]	7.73

* * *

method: Single-dose PK in cynomolgus monkeys (IV/PO)
Assay type: in vivo, cynomolgus monkey
assay-setup: both sexes, in vivo; Cynomolgus monkey, fasted, IV 1 mg/kg; read-out: Vss

input-smiles	reading-unit	Vd
C[C@H](Nc1ncnc(N)c1C#N)c1cc2ncc(Cl)n2nc1-c1ccccc1	L/kg	1.45
